Please go through the items and note down their melting point.
Residues, ends and D or L forms follow the SMILES beside them. *: point of attachment. X1 = CC1(C(=O)*)CCC2(C)CCC3(C)C(=CC(=O)C4C5(C)CCC(O)C(C)(C)C5CCC43C)C2C1

Q: Identify melting point associated with the molecule COC(=O)C(CC(C)C)NC(=O)CNC(=O)CNC(=O)C1(C)CCC2(C)CCC3(C)C(=CC(=O)C4C5(C)CCC(O)C(C)(C)C5CCC43C)C2C1 (stereo not drawn)
Result: 170 to 172 °C

Q: Determine from records and report melting point for CC1(C(=O)NCC(=O)NCC(=O)O)CCC2(C)CCC3(C)C(=CC(=O)C4C5(C)CCC(O)C(C)(C)C5CCC43C)C2C1 (stereo not drawn)
Result: 207 to 209 °C

Q: Determine its reported melting point: CCCC(NC(=O)C(CC(C)C)NC(=O)OC(C)(C)C)C(=O)OC1CCC2(C)C(CCC3(C)C2C(=O)C=C2C4CC(C)(C(=O)NCC(=O)NCC(=O)OCC)CCC4(C)CCC23C)C1(C)C (stereo not drawn)
Result: 169 to 171 °C

Q: Respond only with melting point recorded for CCOC(=O)CNC(=O)CNC(=O)CNC(=O)CNC(=O)C1(C)CCC2(C)CCC3(C)C(=CC(=O)C4C5(C)CCC(O)C(C)(C)C5CCC43C)C2C1 (stereo not drawn) [Compound 4] (X1-GGGG-OEt)
Result: 130 to 133 °C

Q: Identify measured melting point corresponding to CCOC(=O)CNC(=O)CNC(=O)C1(C)CCC2(C)CCC3(C)C(=CC(=O)C4C5(C)CCC(O)C(C)(C)C5CCC43C)C2C1 (stereo not drawn)
Result: 160 to 162 °C

Q: Look up and report measured melting point for this entry: CC(C)CC(NC(=O)CNC(=O)CNC(=O)C1(C)CCC2(C)CCC3(C)C(=CC(=O)C4C5(C)CCC(O)C(C)(C)C5CCC43C)C2C1)C(=O)O (stereo not drawn)
Result: 210 to 212 °C

---

System: Staphylococcus aureus ATCC25923
assayText: Well diffusion assay, Staphylococcus aureus
Type: cell-based
Residues, ends and D or L forms follow the SMILES beside them. *: point of attachment. X1 = CC1(C(=O)*)CCC2(C)CCC3(C)C(=CC(=O)C4C5(C)CCC(O)C(C)(C)C5CCC43C)C2C1
Hi there, I'd appreciate the recorded Diameter of Inhibition Zone (mm) for every entry that follows.
The reply should be a number in mm, with the unit left off.

Q: Output Diameter of Inhibition Zone (mm) of CCOC(=O)CNC(=O)CNC(=O)C1(C)CCC2(C)CCC3(C)C(=CC(=O)C4C5(C)CCC(O)C(C)(C)C5CCC43C)C2C1 (stereo not shown)
Result: 15

Q: Supply reported Diameter of Inhibition Zone (mm) belonging to this compound: CC1(C(=O)NCC(=O)NCC(=O)O)CCC2(C)CCC3(C)C(=CC(=O)C4C5(C)CCC(O)C(C)(C)C5CCC43C)C2C1 (stereo not shown)
Result: 17

Q: Quick one: give measured Diameter of Inhibition Zone (mm) for COC(=O)C(CC(C)C)NC(=O)CNC(=O)CNC(=O)C1(C)CCC2(C)CCC3(C)C(=CC(=O)C4C5(C)CCC(OC(=O)CNC(=O)CNC(=O)OC(C)(C)C)C(C)(C)C5CCC43C)C2C1 (stereo not shown)
Result: 13

Q: Note down Diameter of Inhibition Zone (mm) recorded for CCOC(=O)CNC(=O)CNC(=O)CNC(=O)CNC(=O)C1(C)CCC2(C)CCC3(C)C(=CC(=O)C4C5(C)CCC(O)C(C)(C)C5CCC43C)C2C1 (stereo not shown) [Compound 4] (X1-GGGG-OEt)
Result: 10

Q: // Input: CCCC(NC(=O)C(CC(C)C)NC(=O)OC(C)(C)C)C(=O)OC1CCC2(C)C(CCC3(C)C2C(=O)C=C2C4CC(C)(C(=O)NCC(=O)NCC(=O)OCC)CCC4(C)CCC23C)C1(C)C (stereo not shown) . Output its Diameter of Inhibition Zone (mm) only.
Result: 17

Q: // Input: CC1(C(=O)NCC(=O)NCC(=O)NCC(=O)NCC(=O)O)CCC2(C)CCC3(C)C(=CC(=O)C4C5(C)CCC(O)C(C)(C)C5CCC43C)C2C1 (stereo not shown) [Compound 5] (X1-GGGG-OH) . Output its Diameter of Inhibition Zone (mm) only.
Result: 15

Q: Please supply the value of reported Diameter of Inhibition Zone (mm) for the item CNC(C)C1CCC(N)C(OC2C(N)CC(N)C(OC3OCC(C)(O)C(NC)C3O)C2O)O1 (stereo not shown) [GM, gentamicin, reference compound]
Result: 25.4

Each recorded value in this set is attributed to paper PMC8346995.
